Substrate: O=c1ccn([C@@H]2O[C@H](COP(=O)(O)OP(=O)(O)O[C@H]3O[C@H](CO)[C@H](O)[C@H](O)[C@H]3O)[C@@H](O)[C@H]2O)c(=O)[nH]1
Experiment: galactosyltransferase assay, HPLC-UV
Type: biochemical, Homo sapiens
Settings: apparent, fixed 5 mM 4-MUX, 10 mM MnCl2, 100 mM sodium cacodylate pH 7.0, 37 °C
Quantity kind: kcat/Km (M⁻¹ s⁻¹)
Numbers only, in M⁻¹ s⁻¹.

Query: Provide kcat/Km value for the following protein: hβ4GalT7 (GST-β4GalT7) (Homo sapiens; Y196F) (protein, truncated soluble form lacking the first 60 N-terminal amino acids (transmembrane domain and part of stem), GST fusion (tag kept), pET-41a(+), E. coli BL21(DE3), glutathione-Sepharose purified) VRGQGQETSGPPRACPPEPPPEHWEEDASWGPHRLAVLVPFRERFEELLVFVPHMRRFLSRKKIRHHIYVLNQVDHFRFNRAALINVGFLESSNSTDYIAMHDVDLLPLNEELDYGFPEAGPFHVASPELHPLYHFKTYVGGILLLSKQHYRLCNGMSNRFWGWGREDDEFYRRIKGAGLQLFRPSGITTGYKTFRHLHDPAWRKRDQKRIAAQKQEQFKVDREGGLNTVKYHVASRTALSVGGAPCTVLNIMLDCDKTATPWCTFS
Reply: 1470
